A collection of compounds and their measured fraction unbound
Assay: Protein binding in mouse serum assessed as fraction unbound
Format: ADME, cell-free
Settings: read-out: PB
PROPERTY: fraction unbound

In [3]: df
Out[3]:
                              sample_smiles  measured_value
0  N#CCCN1C(=O)CC[C@H]1C(=O)N1CC[C@@]2(S(=O)(=O)c3ccc(F)cc3)c3ncc(C(F)(C(F)(F)F)C(F)(F)F)cc3CC[C@@H]12            0.16
1  C[C@@](O)(CS(C)(=O)=O)C(=O)N[C@@H]1CC[C@@]2(S(=O)(=O)c3ccc(F)cc3)c3ccc(C(F)(C(F)(F)F)C(F)(F)F)nc3CC[C@@H]12           0.015
2  C[C@@](O)(CS(C)(=O)=O)C(=O)N[C@@H]1CC[C@@]2(S(=O)(=O)c3ccc(F)cc3)c3ccc(C(F)(C(F)(F)F)C(F)(F)F)cc3CC[C@@H]12           0.004
3  C[C@](O)(CS(C)(=O)=O)C(=O)N[C@@H]1CC[C@@]2(S(=O)(=O)c3ccc(F)cc3)c3ccc(C(F)(C(F)(F)F)C(F)(F)F)cc3CC[C@@H]12           0.002
4  O=C(C1CCS(=O)(=O)CC1)N1CC[C@@]2(S(=O)(=O)c3ccc(F)cc3)c3ccc(C(F)(C(F)(F)F)C(F)(F)F)nc3CC[C@@H]12            0.05
5  CC(C)(O)CC(=O)N[C@@H]1CC[C@@]2(S(=O)(=O)c3ccc(F)cc3)c3ccc(C(F)(C(F)(F)F)C(F)(F)F)nc3CC[C@@H]12           0.018
